Data origin: PubChem BioAssay AID651672

target: Perilipin-1 (Homo sapiens) (UniProt O60240); assay: inhibitors of ABHD5-PLIN1 binding, dose response, counter-screen for ABHD5-PLIN5 interaction inhibitor project, biochemical, luminescence (AID 651672);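 note: split Gaussia luciferase complementation between ABHD5 and PLIN1 fusion fragments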
Sequence (O60240 whole entry, looked up, the tested form may be a part): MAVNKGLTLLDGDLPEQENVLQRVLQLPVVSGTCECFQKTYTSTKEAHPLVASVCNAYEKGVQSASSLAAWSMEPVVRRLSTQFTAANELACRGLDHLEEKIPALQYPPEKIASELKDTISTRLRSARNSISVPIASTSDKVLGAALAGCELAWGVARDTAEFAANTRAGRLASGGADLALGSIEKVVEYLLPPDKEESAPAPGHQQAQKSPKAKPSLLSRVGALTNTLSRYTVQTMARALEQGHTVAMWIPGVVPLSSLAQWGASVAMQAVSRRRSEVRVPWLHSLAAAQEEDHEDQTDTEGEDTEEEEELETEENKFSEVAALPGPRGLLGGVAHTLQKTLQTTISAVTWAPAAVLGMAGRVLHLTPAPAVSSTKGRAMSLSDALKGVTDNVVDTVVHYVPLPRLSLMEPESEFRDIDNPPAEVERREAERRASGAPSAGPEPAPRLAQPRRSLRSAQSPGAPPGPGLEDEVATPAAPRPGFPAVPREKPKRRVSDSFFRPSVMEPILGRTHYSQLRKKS
Activity calls are given as the source filed them. The rule behind the calls is not given here.
Hi! Could you answer with just one of these? active, inactive

Below, 5 molecules whose answers are already recorded.
O=C(NC1CCCCC1)C(c1ccccc1)n1c(=O)c(-c2ccco2)nc2ccccc21 (stereo not given) = active
CCOC(=O)C1CCCN(C(=O)c2cc(Nc3ccc(OC)cc3)nc3ccccc23)C1 (stereo not given) = inactive
CCN1/C(=C/C=C/c2oc3ccc(-c4ccccc4)cc3[n+]2CC)Oc2ccc(-c3ccccc3)cc21 = active
CN1C(=O)/C(=C/C=C/c2ccco2)C(=O)NC1=S = active
Cc1ccc(C(=O)c2coc3c2C(=O)C(=O)c2ccccc2-3)cc1 = active

Consider the record given below.
Prompt: Identify the outcome logged in this assay for the molecule shown: CC1Sc2ccc(S(=O)(=O)N3CCC(C(=O)NCc4ccc(Cl)cc4)CC3)cc2NC1=O (stereo not given)
Response: active

###

target: Perilipin-1 (Homo sapiens) (UniProt O60240); assay: inhibitors of ABHD5-PLIN1 binding, dose response, counter-screen for ABHD5-PLIN5 interaction inhibitor project, biochemical, luminescence (AID 651672); call rule not given here;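 note: split Gaussia luciferase complementation between ABHD5 and PLIN1 fusion fragments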
Respond with a class label; see active, inactive

Take a look at these entries with their results.
O=C(Nc1ccc(Cl)cc1)/C(=C/c1cccc(O)c1)c1nc2ccccc2s1 = active
COc1ccccc1/C=C/C(=O)c1ccccc1 = active
CCCCCNC(=O)C(c1ccc(C#N)cc1)n1c(=O)c(-c2ccco2)nc2ccccc21 (stereo unspecified) = active

Prompt: Which outcome was assigned to `COCCNC(=O)/C(C#N)=C/c1cccc(/C=C(\C#N)C(=O)NCCOC)c1` in this test?
Response: active

Prompt: Check the results log: what was the call for `CC(C)c1nnc(NC(=O)c2nc(S(=O)(=O)Cc3ccc(F)cc3)ncc2Cl)s1` ?
Response: active

Prompt: Recorded call for O=C(NC1CCCCC1)C(c1ccc(-c2ccccc2)cc1)n1c(=O)c(-c2ccco2)nc2ccccc21 (stereo unspecified) ?
Response: active

###

Parameter: pIC50. Scope: all listed entries.
biological target: Perilipin-1 (Homo sapiens) (UniProt O60240); experiment: inhibitors of ABHD5-PLIN1 binding, dose response, counter-screen for ABHD5-PLIN5 interaction inhibitor project, biochemical, luminescence (AID 651672);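 note: split Gaussia luciferase complementation between ABHD5 and PLIN1 fusion fragments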
Just the number, please; pIC50 means minus log10 of the concentration in mol/L.

Consider the reported pIC50 for these compounds:
Cc1cccc(C)c1NC(=O)C(c1ccc(-c2ccccc2)cc1)n1c(=O)c(-c2ccco2)nc2ccccc21 (centres undefined) = 5.83
CN(C)c1ccc(Cc2cc3c(O)ccc(O)c3cc(Cc3ccc(N(C)C)cc3)c2=O)cc1 = 5.62
CCN1CCN(Cc2ccc(NC(=O)c3ccc(C)c(/C=C/c4cnc(Nc5cc(N6CCNCC6)nc(C)n5)cn4)c3)cc2C(F)(F)F)CC1 = 5.47
O=C(/C(=C/c1ccccc1)n1cncn1)c1ccc(Cl)cc1Cl = 5.64
Cc1ccc(C(=O)c2c(C)oc3c2C(=O)C(=O)c2ccccc2-3)cc1 = 5.27
CCc1nnc(NC(=O)c2nc(S(=O)(=O)Cc3ccccc3)ncc2Cl)s1 = 5.37
Cc1ccc(O)c(C(=O)/C=C/c2ccc3c(c2)OCCCO3)c1 = 5.33
COc1ccc(C(C(=O)NCc2ccccc2)n2c(=O)c(-c3ccco3)nc3ccccc32)cc1 (centres undefined) = 5.66

# ---- query compound ----
Lab note: compound CC(C)(C)NC(=O)C(c1ccccc1)n1c(=O)c(-c2ccco2)nc2ccccc21 (centres undefined) tested on Perilipin-1 (Homo sapiens) (UniProt O60240); recorded pIC50 was 5.69
